Measured values drawn from ChEMBL document CHEMBL3352310 for this set.

Target: Genome polyprotein (dengue virus type 2, UniProt Q91H74)
Test: Inhibition of dengue virus-1 NS2B-NS3 protease
Set-up: species or system dengue virus type 1
experimentalEndpoint: IC50 (µM)
Expressed in µM, but write only the number.

Exam item: Indicate the recorded IC50 value for this compound: "N=C(N)Nc1ccc(O[C@H]2C[C@@H](Oc3ccc(NC(=N)N)cc3NC(=N)N)[C@H](NC(=N)N)C[C@@H]2NC(=N)N)c(NC(=N)N)c1"
Marked response: 1

* * *

Test system: Dengue virus
Test: Antiviral activity against Dengue virus
Type: functional, organism-based
experimentalEndpoint: pEC50
Hey, just a heads up that pEC50 is the negative log base 10 of the concentration in molar.

Exam item: Report measured pEC50 on Dengue virus; entry: NC(=O)c1ncn([C@@H]2O[C@H](CO)[C@@H](O)[C@H]2O)n1 [RIBAVIRIN]
Marked response: 4.31

* * *

Target: Genome polyprotein (dengue virus type 2, UniProt Q91H74)
Assay: Inhibition of dengue virus-4 NS2B-NS3 protease
Parameters: species or system dengue virus type 4
Peptide text beside a SMILES is read from it.
experimentalEndpoint: pKi
Scale note: pKi = -log10(concentration in M).

Exam item: // output pKi; input NC(=O)[C@H](Cc1c[nH]c2ccccc12)NC(=O)[C@H](CS)NC(=O)[C@H](Cc1ccc(O)cc1)NC(=O)[C@@H](N)Cc1c[nH]c2ccccc12 (H-WYCW-NH2) ; system Genome polyprotein (dengue virus type 2, UniProt Q91H74)
Marked response: 4.95

* * *

Target: Genome polyprotein (West Nile virus)
Sequence (P06935 1371-1501 limits assumed): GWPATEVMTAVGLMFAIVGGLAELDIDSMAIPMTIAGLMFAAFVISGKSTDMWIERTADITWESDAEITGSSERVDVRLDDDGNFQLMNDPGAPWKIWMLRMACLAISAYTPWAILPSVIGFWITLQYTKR
Sequence (P06935 1502-2120 limits assumed): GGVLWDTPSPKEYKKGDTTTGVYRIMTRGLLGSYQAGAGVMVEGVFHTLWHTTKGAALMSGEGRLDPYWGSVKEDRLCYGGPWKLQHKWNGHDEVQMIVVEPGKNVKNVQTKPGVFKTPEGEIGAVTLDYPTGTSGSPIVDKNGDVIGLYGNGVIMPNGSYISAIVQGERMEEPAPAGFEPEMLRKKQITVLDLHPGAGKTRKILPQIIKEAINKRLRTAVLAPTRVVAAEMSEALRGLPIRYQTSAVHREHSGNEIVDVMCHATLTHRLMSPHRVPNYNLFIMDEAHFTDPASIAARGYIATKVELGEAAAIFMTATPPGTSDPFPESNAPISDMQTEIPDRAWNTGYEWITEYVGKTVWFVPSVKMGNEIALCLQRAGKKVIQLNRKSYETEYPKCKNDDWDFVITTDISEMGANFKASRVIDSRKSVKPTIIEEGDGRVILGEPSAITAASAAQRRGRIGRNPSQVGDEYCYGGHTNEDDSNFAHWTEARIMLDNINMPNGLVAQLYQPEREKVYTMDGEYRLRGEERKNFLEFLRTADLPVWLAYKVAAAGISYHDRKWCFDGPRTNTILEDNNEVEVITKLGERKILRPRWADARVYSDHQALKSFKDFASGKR
Experiment: Non-competitive inhibition of West Nile virus NS2B-NS3 protease
Give measured IC50 for each item. Keep answers brief.
Numeric answer only, unit µM assumed.

Exam item: Look up and state reported IC50 for COc1cc2c(cc1OC)-c1cc3ccc(OC)c(OC)c3c[n+]1CC2 [PALMITINE]
Marked response: 96

Exam item: Read off the recorded IC50 for Cc1ccc2c(c1)-c1c(=O)nc(SCc3ccccc3)[nH][n+]1C(c1ccc(Cl)cc1)N2 (stereo not drawn)
Marked response: 5.41

Exam item: For the compound CCCSc1nnc(N2C(=O)C(O)=C(C(=O)c3ccc(Cl)cc3)C2c2ccc(Cl)cc2)s1 (stereo not drawn) , report IC50.
Marked response: 2.2

* * *

Target: Genome polyprotein (dengue virus type 2, UniProt Q91H74)
Assay: Inhibition of dengue virus-3 NS2B-NS3 protease
Parameters: species or system dengue virus type 3
Peptide text beside a SMILES is read from it.
experimentalEndpoint: pKi
pKi here is simply -log10 of the concentration when that concentration is written in mol/L.

Exam item: Report pKi, nothing else, for this compound: NC(=O)[C@H](Cc1c[nH]c2ccccc12)NC(=O)[C@H](CS)NC(=O)[C@H](Cc1ccc(O)cc1)NC(=O)[C@@H](N)Cc1c[nH]c2ccccc12 (H-WYCW-NH2)
Marked response: 4.61

* * *

Please respond with reported pIC50 for every item in the list.
Target: UniProtKB Q91H74
Assay: Inhibition of dengue virus NS2B-NS3 protease
pIC50 here: minus log base 10 of the concentration, concentration in moles per litre.

Exam item: Param request: pIC50 | system UniProtKB Q91H74 | item "O=c1cc(-c2ccccc2)oc2ccc(-c3cn[nH]n3)cc12"
Marked response: 4.16

Exam item: Fill in pIC50 for Cc1cc(C)c2c(c1)OC(c1ccc(N(C)C)cc1)CC2=O (centres undefined) tested with UniProtKB Q91H74.
Marked response: 3.92

Exam item: Provide pIC50, tested on UniProtKB Q91H74, for Cc1ccc(C(NN=C(N)N)[PH](=O)O)cc1 (centres undefined) .
Marked response: 4.85

Exam item: // output pIC50; input COc1ccc(-c2nnc(C(Cc3ccccc3)n3sc4ccccc4c3=O)o2)cc1 (centres undefined) ; system UniProtKB Q91H74
Marked response: 5.43

* * *

Peptide text beside a SMILES is read from it.
What Ki was measured for each of the following?
# number only, unit µM dropped from output

Exam item: Quote Ki with test system Genome polyprotein (dengue virus type 2, UniProt P12823) for NC(=O)[C@H](Cc1c[nH]c2ccccc12)NC(=O)[C@H](CS)NC(=O)[C@H](Cc1ccc(O)cc1)NC(=O)[C@@H](N)Cc1c[nH]c2ccccc12 (H-WYCW-NH2)
Marked response: 4.8

Exam item: Report value only: Ki, Genome polyprotein (dengue virus type 2, UniProt P12823), "N=C(N)Nc1ccc(OC(=O)c2ccc(NC(=N)N)cc2)cc1"
Marked response: 2

Exam item: Answer briefly: Ki recorded on Genome polyprotein (dengue virus type 2, UniProt P12823) for "N#Cc1ccc(OC(=O)c2ccc(NC(=N)N)cc2)cc1"
Marked response: 31.1

* * *

Would you mind telling me the reported pIC50 of each entry?
Target: Genome polyprotein (West Nile virus)
Test: Inhibition of West Nile virus NS2B-NS3 protease
Peptide text beside a SMILES is read from it. * marks the point of attachment. Bz = O=C(c1ccccc1)*
Scale: negative log10 of molar concentration, which is what pIC50 denotes.

Exam item: Return pIC50 (reported value) for this molecule: Oc1c(C(Nc2nccs2)c2cccc(OCc3ccccc3)c2)ccc2cccnc12 (centres undefined)
Marked response: 5.70

Exam item: Determine its reported pIC50: "N=C(N)NCCC[C@H](NC(=O)[C@H](CCCCN)NC(=O)[C@H](CCCCN)NC(=O)C1CC1)C(=O)O"
Marked response: 6.42

Exam item: Note down pIC50 recorded for "CCc1ccc(NC(=O)CSc2nc3ccc(NC(=O)CSc4nnc(-c5ccccc5)n4C)cc3s2)cc1"
Marked response: 5.47

Exam item: Quote pIC50 reported for N=C(N)NCCC[C@H](NC(=O)[C@H](CCCCN)NC(=O)[C@H](CCCCN)NC(=O)c1ccccc1)C(=O)O (Bz-Lys-Lys-Arg-OH) please.
Marked response: 6.38
